target: plasma purified human complement protein C3 (human) (UniProt P01024); experiment: cell-based or functional assay
Sequence (P01024 23-667, chain 1 of 2): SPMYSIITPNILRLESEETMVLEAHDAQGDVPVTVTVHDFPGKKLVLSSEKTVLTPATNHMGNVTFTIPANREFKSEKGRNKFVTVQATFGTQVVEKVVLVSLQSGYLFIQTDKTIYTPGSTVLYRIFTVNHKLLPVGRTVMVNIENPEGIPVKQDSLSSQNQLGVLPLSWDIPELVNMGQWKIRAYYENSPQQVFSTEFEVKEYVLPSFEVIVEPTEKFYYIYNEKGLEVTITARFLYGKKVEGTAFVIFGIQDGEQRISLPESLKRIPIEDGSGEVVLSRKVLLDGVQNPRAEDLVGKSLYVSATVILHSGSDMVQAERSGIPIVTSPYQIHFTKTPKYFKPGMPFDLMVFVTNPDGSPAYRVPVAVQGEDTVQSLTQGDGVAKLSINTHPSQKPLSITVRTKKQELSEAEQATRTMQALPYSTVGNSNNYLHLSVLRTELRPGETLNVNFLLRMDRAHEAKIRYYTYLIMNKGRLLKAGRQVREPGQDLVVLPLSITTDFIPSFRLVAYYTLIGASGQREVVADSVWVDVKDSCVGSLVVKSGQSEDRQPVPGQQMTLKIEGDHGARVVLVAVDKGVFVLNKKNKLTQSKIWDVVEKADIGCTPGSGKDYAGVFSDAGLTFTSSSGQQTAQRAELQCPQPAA
Sequence (P01024 672-1663, chain 2 of 2): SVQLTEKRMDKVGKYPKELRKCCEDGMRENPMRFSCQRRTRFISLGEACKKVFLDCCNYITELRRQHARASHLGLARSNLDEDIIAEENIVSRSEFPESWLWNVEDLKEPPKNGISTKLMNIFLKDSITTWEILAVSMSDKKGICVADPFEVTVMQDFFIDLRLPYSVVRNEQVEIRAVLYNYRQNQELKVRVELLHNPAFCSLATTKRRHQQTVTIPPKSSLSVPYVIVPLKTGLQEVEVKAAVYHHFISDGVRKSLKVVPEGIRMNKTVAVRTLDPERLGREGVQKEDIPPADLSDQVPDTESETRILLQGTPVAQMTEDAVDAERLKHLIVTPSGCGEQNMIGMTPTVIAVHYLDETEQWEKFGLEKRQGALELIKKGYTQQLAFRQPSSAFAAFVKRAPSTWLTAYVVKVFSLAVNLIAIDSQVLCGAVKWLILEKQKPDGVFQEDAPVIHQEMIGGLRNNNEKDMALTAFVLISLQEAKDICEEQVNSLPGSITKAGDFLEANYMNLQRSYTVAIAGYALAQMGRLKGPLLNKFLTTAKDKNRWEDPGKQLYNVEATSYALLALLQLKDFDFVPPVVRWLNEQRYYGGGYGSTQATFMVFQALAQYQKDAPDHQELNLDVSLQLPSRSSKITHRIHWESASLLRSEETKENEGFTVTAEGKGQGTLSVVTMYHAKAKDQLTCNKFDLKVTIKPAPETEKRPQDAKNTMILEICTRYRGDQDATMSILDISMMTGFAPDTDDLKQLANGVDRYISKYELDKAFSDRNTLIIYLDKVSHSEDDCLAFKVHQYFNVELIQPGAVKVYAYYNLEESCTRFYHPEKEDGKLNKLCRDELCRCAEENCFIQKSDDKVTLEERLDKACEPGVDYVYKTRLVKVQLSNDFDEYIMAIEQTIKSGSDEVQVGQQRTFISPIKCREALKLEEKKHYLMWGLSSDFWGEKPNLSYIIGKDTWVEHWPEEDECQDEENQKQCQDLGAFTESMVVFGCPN
measured_quantity: EC50 of hC3 cleavage (nM)
Just the number in nM, nothing appended.

Worked examples, 2 binders total:
Give the measured EC50 of hC3 cleavage of MTSP-1 Q38H/I41A/D60bT/F60eK/Y60gW/F97T/ins97aE/T98G/F99L/C122S/Q175L/Q192A (enzyme) VVGGTDADEGEWPWQVSLHALGHGHACGASLISPNWLVSAAHCYIDTRGKRWSDPTQWTAFLGLHDQSQRSAPGVQERRLKRIISHPFFNDTEGLDYDIALLELEKPAEYSSMVRPISLPDASHVFPAGKAIWVTGWGHTQYGGTGALILQKGEIRVINQTTCENLLPQLITPRMMCVGFLSGGVDSCAGDSGGPLSSVEADGRIFQAGVVSWGDGCAQRNKPGVYTRLPLFRDWIKENTGV . 2.71

Give the measured EC50 of hC3 cleavage of MTSP-1 Q38H/I41S/D60bS/F60eQ/Y60gF/ins97aV/F97D/T98P/F99L/C122S/H143R/G151N/Q175L/Q192T (enzyme) VVGGTDADEGEWPWQVSLHALGHGHSCGASLISPNWLVSAAHCYIDSRGQRFSDPTQWTAFLGLHDQSQRSAPGVQERRLKRIISHPFFNDDVPLDYDIALLELEKPAEYSSMVRPISLPDASHVFPAGKAIWVTGWGRTQYGGTNALILQKGEIRVINQTTCENLLPQLITPRMMCVGFLSGGVDSCTGDSGGPLSSVEADGRIFQAGVVSWGDGCAQRNKPGVYTRLPLFRDWIKENTGV . 12.9

More entries:
Give the measured EC50 of hC3 cleavage of MTSP-1 ins97aD/F97Q/T98G/F99L/C122S/Q175L/Q192E/D217F/K224S (enzyme) VVGGTDADEGEWPWQVSLHALGQGHICGASLISPNWLVSAAHCYIDDRGFRYSDPTQWTAFLGLHDQSQRSAPGVQERRLKRIISHPFFNDQDGLDYDIALLELEKPAEYSSMVRPISLPDASHVFPAGKAIWVTGWGHTQYGGTGALILQKGEIRVINQTTCENLLPQLITPRMMCVGFLSGGVDSCEGDSGGPLSSVEADGRIFQAGVVSWGFGCAQRNSPGVYTRLPLFRDWIKENTGV . 5560
